The values you see were collected from PubChem BioAssay AID602234.

Assay Comment: NCOA3 reporter inhibition potency – cell-based, luminescence, counter-screen for SRC1 inhibitor project, dose response (AID 602234);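 also: HEK293 cells co-transfected with pGL4.31 reporter and pBIND-SRC3 fusion vector; potency for inhibition of reporter luminescence with Gossypol as full inhibition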
Test Settings: transfected HEK293 cells, counter-screen luciferase reporter
The source made the active and inactive calls. No rule for the calls is given here.
Write down the outcome that applies. Available outcomes: active, inactive

Study these solved cases before continuing.
Compound	Category
CCn1c(Oc2cccc(Br)c2)nc2c1c(=O)n(C)c(=O)n2C	inactive
CCCCCCCC[n+]1c(C)n(-c2ccccc2)c2ccc(NC(C)=O)cc21	active
CCOc1ccc(-c2noc(CCC(=O)O)n2)cc1	inactive
Cc1ccc(OCC(=O)c2cc(C)n(-c3ccccc3)c2C)c([N+](=O)[O-])n1	active
Cc1ccc(NC(=O)CCC(=O)N/N=C/c2ccc(O)cc2O)cc1	inactive
COc1ccc(/C=C2/SC(=S)N(CCC(=O)O)C2=O)cc1	active

[in] For this compound, state the assay outcome: "Cn1nc(C(F)(F)F)c(C#N)c1N1CCN(c2ccc(F)cc2)CC1"
[out] active

[in] // outcome(item) with item = "CCCc1cc(C(=O)N(C)CC(=O)Nc2ccc(OCC)c(OCC)c2)sc1C"
[out] inactive

[in] Outcome logged for COc1cccc(/C=N/NC(=O)CNC(=O)C2COc3ccccc3O2)c1O (stereo unspecified) in this assay:
[out] active

[in] Please let me know the test result on file for "CCOC(=O)CSc1cc(-c2ccccc2)nc2ncnn12" .
[out] inactive

[in] // outcome(item) with item = "CCOc1cccc(/C=N/NC(=O)c2cccnc2)c1O"
[out] active
